- experiment-notes: Solubility of Compound 1 in 19 types of solvents at room temperature
- Format: physicochemical
- cond: organic solvent or mixture, thermodynamic from solid; solvent Acetone, 3000 μL, not dissolved completely at 50° C.
value-type: solubility

Consider the compound O=C(O)[C@H]1C2CCC(CC2)[C@@H]1Nc1nc(-c2n[nH]c3ncc(F)cc23)nc(C2CC2)c1F and give its measured solubility.
< 3300 µg/mL

###

- experiment-notes: Solubility of Compound 1 in 19 types of solvents at room temperature
- Assay type: physicochemical
- cond: organic solvent or mixture, thermodynamic from solid; solvent Ethylene glycol monomethyl ether, 200 μL
- From the text: Compound 1 was detected at room temperature for its solubility in 19 types of solvents. Specially, Compound 1 obtained in Example 1 was taken as sample for detecting its solubility in methanol, ethanol, water, acetonitrile, dioxane and other solvents.
value-type: solubility

Consider the molecule O=C(O)[C@H]1C2CCC(CC2)[C@@H]1Nc1nc(-c2n[nH]c3ncc(F)cc23)nc(C2CC2)c1F [Compound 1] and give its measured solubility.
> 50 mg/mL
